Target: CTSC in U937 cells (Homo sapiens (Human))
Sequence (P53634 25-463): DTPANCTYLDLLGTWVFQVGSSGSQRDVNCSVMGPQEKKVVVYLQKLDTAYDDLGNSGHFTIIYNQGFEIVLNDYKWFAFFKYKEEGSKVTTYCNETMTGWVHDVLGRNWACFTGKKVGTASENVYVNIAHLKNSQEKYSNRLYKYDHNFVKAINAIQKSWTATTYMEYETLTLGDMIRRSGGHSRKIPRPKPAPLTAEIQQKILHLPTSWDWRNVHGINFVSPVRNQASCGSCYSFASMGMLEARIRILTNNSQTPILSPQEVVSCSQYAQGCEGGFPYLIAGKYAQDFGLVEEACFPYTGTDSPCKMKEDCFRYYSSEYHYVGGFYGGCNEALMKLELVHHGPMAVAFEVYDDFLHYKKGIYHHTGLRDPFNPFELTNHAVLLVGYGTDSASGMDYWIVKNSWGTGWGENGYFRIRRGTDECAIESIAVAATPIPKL
Assay: Intracellular CTSC inhibition assay (in vitro), LLOMe-induced cell death in U937 cells
Format: cell-based
Conditions: 3 hours culture, CellTiter-Glo
readout type: log10 IC50 (log10 of the value in nM)
Base-10 log of IC50, unit nM.

Reference set (3 entries):
molecule	observed value
CC1(C)CN[C@H](C(=O)N2CCC(c3nnn(-c4ccc(F)c(F)c4)n3)CC2)C[C@H]1O [Example 103]	-0.30
CC1(C)CN(C(=O)c2nc(C3(C(F)(F)F)CCN(C(=O)[C@@H]4C[C@@H](O)C5(CCC5)CN4)CC3)no2)C1 [Example 53]	1.05
O=C([C@@H]1C[C@@H](O)C2(CCC2)CN1)N1CCC(c2nccc(-n3cc(F)cn3)n2)CC1 [Example 99]	0.05

Quick batch: log10 IC50 for everything below.
1. O=C([C@@H]1C[C@@H](O)C2(CCC2)CN1)N1CCC(c2nccc(N3CCC(F)(F)CC3)n2)CC1 [Example 94]
2. CC(C)C1(c2nc(C3CC(F)(F)C3)no2)CN(C(=O)[C@@H]2C[C@@H](O)C3(CCC3)CN2)C1 [Example 18]
3. O=C([C@@H]1C[C@@H](O)C2(CCC2)CN1)N1CCC(c2noc(C3CCCCO3)n2)(C(F)(F)F)CC1 (stereo partly shown) [Example 59]
4. O=C([C@@H]1C[C@@H](O)C2(CCC2)CN1)N1CCC(c2nnn(-c3ccc(F)cc3)n2)(C(F)(F)F)CC1 [Example 95]

*A*
1. 0.59
2. 0.37
3. -0.15
4. -0.70
